- Study Target: T1, human MARF1 L7 (Homo sapiens, UniProt Q9Y4F3 1411-1485)
- T1 sequence: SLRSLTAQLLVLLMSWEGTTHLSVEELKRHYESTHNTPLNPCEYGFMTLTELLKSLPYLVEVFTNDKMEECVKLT
- Assay Text: ELISA
Quantity: binding result

UUAGGGUUAGGGUUAGGGUUAGGG (structured_RNA) [TERRA G4 RNA] : binds
GGUCCGCAGCCGAGUCCGGGUCCG (ssRNA) [Cluster G4-1 mut RNA] : no binding
UUACCGUUACCGUUACCGUUACCG (ssRNA) [TERRA G4 mut RNA] : no binding
GGUGGGCAGGGGAGUGGGGGUGGG (structured_RNA) [Cluster G4-1 RNA] : binds
